# Test system: Mus musculus
# Assay remarks: Analgesic activity in Swiss albino mouse assessed as reaction time at 50 mg/kg, ip after 1 hr by hotplate method (reference value: 7.5 seconds)
# Format: functional
# Measurement parameters: route intraperitoneal
Experimental endpoint: Time

// query Identify the measured Time of CNC(=S)N/N=C/c1nc2ccc(I)cc2c(=O)n1-c1ccc(F)cc1 for Mus musculus.
// result 19.2 s

// query Identify the measured Time of O=c1c2cc(I)ccc2nc(/C=N/NC(=S)Nc2ccccc2)n1-c1ccccc1 for Mus musculus.
// result 19.2 s

// query Identify the measured Time of O=c1c2cc(I)ccc2nc(/C=N/NC(=S)Nc2ccccc2)n1-c1ccc(F)cc1 for Mus musculus.
// result 13.5 s

// query Identify the measured Time of NC(=S)N/N=C/c1nc2ccc(I)cc2c(=O)n1-c1ccccc1 for Mus musculus.
// result 26.6 s

// query Identify the measured Time of NC(=S)N/N=C/c1nc2ccc(I)cc2c(=O)n1-c1ccc(F)cc1 for Mus musculus.
// result 27.2 s

* * *

# Tested on: Mus musculus
# Assay remarks: Analgesic activity in Swiss albino mouse assessed as reaction time at 50 mg/kg, ip after 0.5 hrs by hotplate method (reference value: 7.4 seconds)
# Assay type: functional
# Measurement parameters: route intraperitoneal
Experimental endpoint: Time (s)
Give the value, in units of s, as a plain number.

// query What does the data say about its Time? Entry: O=c1c2cc(I)ccc2nc(/C=N/NC(=S)Nc2ccccc2)n1-c1ccc(F)cc1
// result 8

// query What does the data say about its Time? Entry: CNC(=S)N/N=C/c1nc2ccc(I)cc2c(=O)n1-c1ccc(F)cc1
// result 11.1

// query What does the data say about its Time? Entry: NC(=S)N/N=C/c1nc2ccc(I)cc2c(=O)n1-c1ccc(F)cc1
// result 19.2

// query What does the data say about its Time? Entry: NC(=S)N/N=C/c1nc2ccc(I)cc2c(=O)n1-c1ccccc1
// result 18.6

// query What does the data say about its Time? Entry: O=c1c2cc(I)ccc2nc(/C=N/NC(=S)Nc2ccccc2)n1-c1ccccc1
// result 10.2
